The values you see were collected from patent US8940722B2.

- testedOn: RORγ ligand binding domain (LBD) (Homo sapiens)
- Sequence (P51449 269-508 limits assumed): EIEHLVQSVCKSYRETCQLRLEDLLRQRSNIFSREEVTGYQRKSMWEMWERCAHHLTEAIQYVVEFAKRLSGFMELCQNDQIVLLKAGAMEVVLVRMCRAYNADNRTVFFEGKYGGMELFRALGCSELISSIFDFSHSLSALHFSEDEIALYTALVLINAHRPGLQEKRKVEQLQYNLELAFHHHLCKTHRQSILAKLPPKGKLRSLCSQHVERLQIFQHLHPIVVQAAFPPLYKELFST
- assayName: TR-FRET Activity Assay (RORγ-LBD / coactivator peptide interaction)
- assayConditions: Table 2; read-out: RORγ activity in the TR-FRET Activity Assay (IC50 FRET), Group
propertyName: IC50

Below are worked cases with known answers.
compound: COc1ccccc1S(=O)(=O)N1Cc2ccccc2COCC1Cc1ccc(C#N)cc1 (stereo not drawn)
result: > 2000 nM
--
compound: O=S(=O)(c1cccc2cccnc12)N1Cc2ccccc2COCC1CC1CCCC1 (stereo not drawn)
result: < 500 nM
--
compound: O=S(=O)(c1cccc2cccnc12)N1Cc2ccccc2COC[C@H]1COCC1CC1
result: 500 to 2000 nM
--
compound: CC(C)(C)OC[C@@H]1COCc2ncccc2CN1S(=O)(=O)c1ccccc1OC(F)(F)F
result: < 500 nM

Request: Provide one value: measured IC50 of O=S(=O)(c1cccc2c1OCC2)N1Cc2ccccc2COCC1Cc1ccccc1 (stereo not drawn)
Result: < 500 nM
